tested on: Rhesus Monkeys; assay: Template bleed times in rhesus monkeys; assay type: in vivo, rhesus monkey; conditions: 7.5 mg/kg, 1 hr, mean of two animals
experimental.readout: Template Bleed Times, Mean of animals (min)
Provide only the numeric value, understood in min.

Q) Tell me its Template Bleed Times, Mean of animals given COc1ccc(NC(=O)c2ccc(C(=N)N(C)C)cc2)c(C(=O)Nc2ccc(Cl)cn2)c1 [Compound A] as the entry.
A) 2.5

----------
tested on: Rhesus Monkeys; experiment: Template bleed times in rhesus monkeys; type: in vivo, rhesus monkey; conditions: 4.0 mg/kg, 8 hr, mean of two animals
experimental.readout: Template Bleed Times, Mean of animals (min)
The response must be a number in min with no trailing unit.

Q) Name the recorded Template Bleed Times, Mean of animals of the item COc1ccc(NC(=O)c2ccc(C(=N)N(C)C)cc2)c(C(=O)Nc2ccc(Cl)cn2)c1 in your answer.
A) 2
